Target: T1, mfGITR.mmh (Macaca fasicularis)
T1 construct: soluble monomeric construct; also called Macaca fasicularis (mf) GITR.mmh; cynomolgus GITR protein
T1 chain: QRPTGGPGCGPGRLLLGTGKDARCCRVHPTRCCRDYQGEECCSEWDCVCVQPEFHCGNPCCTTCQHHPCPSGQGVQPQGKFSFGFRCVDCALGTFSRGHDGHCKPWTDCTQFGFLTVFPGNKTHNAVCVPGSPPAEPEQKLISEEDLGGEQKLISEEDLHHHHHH
Assay: SPR 37C, mAb capture
measured.quantity: t½ (min)
Your answer is read as min, so omit the unit and give the number.

Known t½ results, listed for orientation:
- binder: "H4H14530P (antibody, human IgG4, V domains shown, human IgG4 (H4H)) VH: QLQLQESGPGLVKPSETLSLTCTVSGGSISSTNHYWGWIRQPPGKGLEWIGNVYYIGNAYYNPSLKTGVTFSVDTSKNQFSLNLRSVTAADTAMYYCARLSNWNFLDLWGQGTLVTVSS VL: EIVMTQSPATLSVSPGERATLSCRASQSISSNLAWYQQKPGQAPRLLIYGASTRATGIPARFSGSGSGTEFTLTISSLQSEDFAVYYCQQFNNWLSFGGGTKVEIK"
  obs.value: 18.9
- binder: "H4H14521P (antibody, human IgG4, V domains shown, human IgG4 (H4H)) VH: EVQLVESGGGLVQPGGSLRLSCAASGFTFRVYEMNWVRQAPGKGLEWISYIGSSGFTIYYADSVKGRFTISRDNAKNSLFLQLNSLRAEDTAVYYCARGWNDGVPNYLGMDVWGQGTTVTVSS VL: DIQMTQSPSSLSASVGDRVTITCQASQDINKYLNWYQQKPGKAPKLLIYDASNLETGVPSRFSGSGSGTDFTFTISSLQPEDIARYHCQQYDKIPLTFGGGTKVEIK"
  obs.value: 3.5

Now take the following binder into account.
Problem: Give the reported value of t½ for this record: H1H14486P (antibody, human IgG1, V domains shown, human IgG1 (H1H)) VH: QVQLVESGGGVVQPGRSLRLSCAASGFTFSNYGMHWVRQAPGKGLEWVAVIWYPGSNKFYTDSVEGRFTISRDNSKNTVYLQMDSLRAEDTAVYYCARGGALGVDYYYGMDVWGQGTTVTVSS VL: AIQMTQSPSSLSASVGDRVTLTCRASQGIRNDLGWYQQKPGKAPNFLIYSASSLQSGVPSRFSGSGSGTDFTLTISSLQPEDFATYYCLQNYNYPWTFGQGTKVEIK
Result: 0.7
